# target-under-test: Glutamate NMDA receptor
# assay-protocol: Compound was evaluated for its ability to displace […] binding for NMDA receptor
property-label: log10(IC50) (log10 of the value in nM)
Quick note: numbers are log10 of IC50, with nM as the unit.

Answered cases to consult:
molecule: O=C(O)C1CC(CP(=O)(O)O)N=CN1 (stereo not drawn)
value-reported: 3.77
--
molecule: NC(CC(CP(=O)(O)O)S(=O)O)C(=O)O (stereo not drawn)
value-reported: 2.38
--
molecule: O=C(O)C1CC(CCCP(=O)(O)O)N=CN1 (stereo not drawn)
value-reported: 2.62

Please look at the items below and tell me log10(IC50) for each one, in order.
1. NC(CCCP(=O)(O)O)CC(N)C(=O)O (stereo not drawn)
2. O=C(O)[C@@H]1C[C@H](CP(=O)(O)O)CCN1 [SELFOTEL]
3. NC(CC(O)CP(=O)(O)O)C(=O)O (stereo not drawn)
4. O=C(O)C1CN(CCCP(=O)(O)O)CCN1 (stereo not drawn)

Found:
[3.36, 1.38, 2.11, 1.45]

Lookup: Need log10(IC50) of NC(CC(N)C(=O)O)CP(=O)(O)O (stereo not drawn) , thanks.
Found: 3.16
